Assay name: Cytotoxicity against African green monkey Vero cells assessed as reduction in cell viability measured after 48 hrs by MTT assay
Type: toxicity, cell-based
Experimental conditions: chlorocebus sabaeus, Vero cells
Measured parameter: CC50 at 48 h (µM)

mol=NC(=S)N/N=C/c1ccc(Cc2ccccc2)o1 meas_value=100

###

System: Vero
Assay name: Cytotoxicity against African green monkey Vero cells assessed as reduction in cell viability measured after 48 hrs by MTT assay
Format: toxicity, cell-based
Experimental conditions: chlorocebus sabaeus, vero, 48 h
Measured parameter: CC50

mol=NC(=S)N/N=C/c1ccc(-c2ccc(C(=O)O)c(O)c2)o1 measured_parameter=CC50 meas_value="> 100 µM"

###

Catalogue of compounds with associated IC50
Target desc: Procathepsin L (Homo sapiens)
Sequence (P07711 whole entry): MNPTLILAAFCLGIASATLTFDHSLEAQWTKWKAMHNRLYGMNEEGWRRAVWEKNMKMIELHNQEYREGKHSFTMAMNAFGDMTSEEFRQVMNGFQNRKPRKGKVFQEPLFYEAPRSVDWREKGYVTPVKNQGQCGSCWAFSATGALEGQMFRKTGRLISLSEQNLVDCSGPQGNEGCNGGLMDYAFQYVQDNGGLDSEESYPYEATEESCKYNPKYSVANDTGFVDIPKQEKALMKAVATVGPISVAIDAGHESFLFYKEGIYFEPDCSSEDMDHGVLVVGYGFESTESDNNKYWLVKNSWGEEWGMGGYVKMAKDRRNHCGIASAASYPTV
Assay name: Inhibition of human Cathepsin L using Ac-FR-AFC as fluorescent substrate preincubated for 15 mins followed by substrate addition and measured after 30 mins by fluorescent microplate reader analysis
Measured parameter: IC50 (µM)

mol=NC(=S)N/N=C/c1ccc(-c2ccc(C(=O)O)c(O)c2)o1 measured_parameter=IC50 meas_value=16.3
mol=NC(=S)N/N=C/c1ccc(Cc2ccccc2)o1 measured_parameter=IC50 meas_value=8.09

###

Target desc: Replicase polyprotein 1ab (Severe acute respiratory syndrome coronavirus 2)
Assay name: Inhibition of SARS CoV-2 main protease using DABCYL-KTSAVLQSGFRKM-E(EDANS)-NH2 as substrate preincubated for 30 mins followed by substrate addition and measured after 20 mins
pIC50: −log10 of the molar value.
Threshold rule: pIC50 greater than or equal to 5 is Met; below that, Not met.

mol=NC(=S)N/N=C/c1ccc(-c2ccc(Cl)c(C(=O)O)c2)o1 class_label="Not met"
mol=NC(=S)N/N=C/c1ccc(-c2ccc(C(=O)O)c(Cl)c2)o1 class_label="Not met"
mol=N#Cc1cc(-c2ccc(/C=N/NC(N)=S)o2)ccc1O class_label=Met
mol=NC(=S)N/N=C/c1ccc(-c2ccccc2)o1 class_label=Met
mol=NC(=S)N/N=C/c1ccc(-c2ccc(C(=O)O)c(O)c2)o1 class_label=Met
mol=NC(=S)N/N=C/c1ccc(-c2ccc(C(=O)O)cc2)o1 class_label="Not met"

###

Catalogue of compounds with associated inhibition
Target desc: Replicase polyprotein 1ab (Severe acute respiratory syndrome coronavirus 2)
Assay name: Inhibition of SARS CoV-2 main protease at 50 uM using DABCYL-KTSAVLQSGFRKM-E(EDANS)-NH2 as substrate preincubated for 30 mins followed by substrate addition and measured after 20 mins relative to control
Experimental conditions: time 50.0 min
Measured parameter: inhibition (%)

mol=COc1cccc(C(=O)NCC(=O)N/N=C/c2ccc([N+](=O)[O-])o2)c1 target_desc="Replicase polyprotein 1ab (Severe acute respiratory syndrome coronavirus 2)" measured_parameter=inhibition qualifying_sign=< meas_value=20
mol=Cc1c(NC(=S)NC(=O)c2ccc(F)cc2)c(=O)n(-c2ccccc2)n1C target_desc="Replicase polyprotein 1ab (Severe acute respiratory syndrome coronavirus 2)" measured_parameter=inhibition qualifying_sign=< meas_value=20
mol=O=C(CNC(=O)c1ccccc1F)N/N=C/c1ccc([N+](=O)[O-])o1 target_desc="Replicase polyprotein 1ab (Severe acute respiratory syndrome coronavirus 2)" measured_parameter=inhibition qualifying_sign=< meas_value=20
mol=O=[N+]([O-])c1cccc(-c2ccc(/C=N/NC(=S)Nc3ccccc3)o2)c1 target_desc="Replicase polyprotein 1ab (Severe acute respiratory syndrome coronavirus 2)" measured_parameter=inhibition qualifying_sign=< meas_value=20
mol=Nc1nonc1C(=O)N/N=C/c1ccc(-c2cccc([N+](=O)[O-])c2)o1 target_desc="Replicase polyprotein 1ab (Severe acute respiratory syndrome coronavirus 2)" measured_parameter=inhibition qualifying_sign== meas_value=31.2
mol=Nc1nonc1-c1nc2ccccc2n1CC(=O)N/N=C/c1ccc(-c2cccc(C(F)(F)F)c2)o1 target_desc="Replicase polyprotein 1ab (Severe acute respiratory syndrome coronavirus 2)" measured_parameter=inhibition qualifying_sign== meas_value=25.5
mol=Cc1ccc(-c2ccc(/C=N/NC(=O)Cn3c4ccccc4c(=O)c4ccccc43)o2)cc1[N+](=O)[O-] target_desc="Replicase polyprotein 1ab (Severe acute respiratory syndrome coronavirus 2)" measured_parameter=inhibition qualifying_sign== meas_value=55.4
mol=O=C(O)c1ccc(-c2ccc(/C=N/NC(=S)Nc3ccc(Cl)cc3)o2)cc1 target_desc="Replicase polyprotein 1ab (Severe acute respiratory syndrome coronavirus 2)" measured_parameter=inhibition qualifying_sign== meas_value=27.5
mol=O=C(O)c1ccc(-c2ccc(/C=N/NC(=S)Nc3cccc(C(F)(F)F)c3)o2)cc1 target_desc="Replicase polyprotein 1ab (Severe acute respiratory syndrome coronavirus 2)" measured_parameter=inhibition qualifying_sign== meas_value=38.6
mol=Cc1c(NC(=S)N/N=C/c2ccc(-c3ccc([N+](=O)[O-])cc3)o2)c(=O)n(-c2ccccc2)n1C target_desc="Replicase polyprotein 1ab (Severe acute respiratory syndrome coronavirus 2)" measured_parameter=inhibition qualifying_sign== meas_value=95

###

Target desc: Replicase polyprotein 1ab (Severe acute respiratory syndrome coronavirus 2)
Assay name: Inhibition of SARS CoV-2 main protease at 50 uM using DABCYL-KTSAVLQSGFRKM-E(EDANS)-NH2 as substrate preincubated for 30 mins followed by substrate addition and measured after 20 mins relative to control
Experimental conditions: time 50.0 min
Measured parameter: inhibition (%)

compound=N#Cc1c(/N=C/c2ccc(-c3ccc(Cl)c(C(=O)O)c3)o2)sc2c1CCCC2 qualifying_sign=< meas_value=20
compound=Cc1c(-c2ccc(/C=N/NC(=O)Cn3c(-c4nonc4N)nc4ccccc43)o2)ccc([N+](=O)[O-])c1C qualifying_sign=< meas_value=20
compound=CNC(=S)N/N=C/c1ccc(-c2ccc(C(=O)O)cc2)o1 qualifying_sign== meas_value=39.5
compound=NC(=S)N/N=C/c1ccc(-c2cccc3ccccc23)o1 qualifying_sign== meas_value=73.2
compound=NC(=O)N/N=C/c1ccc(-c2ccc([N+](=O)[O-])cc2)o1 qualifying_sign=< meas_value=20
compound=O=C1NC(=S)N/C1=C/c1ccc(-c2ccccc2C(=O)O)o1 qualifying_sign=< meas_value=20
compound=Nc1nonc1-c1nc2ccccc2n1CC(=O)N/N=C/c1ccc(-c2ccccc2C(=O)O)o1 qualifying_sign== meas_value=41.7
compound=O=C(Cn1c2ccccc2c(=O)c2ccccc21)N/N=C/c1ccc(-c2cc([N+](=O)[O-])ccc2Cl)o1 qualifying_sign=< meas_value=20
compound=O=C(N/N=C/c1ccc(-c2cccc(C(=O)O)c2)o1)Nc1ccc(Cl)cc1 qualifying_sign== meas_value=44.6
compound=Cc1c(NC(=S)NC(=O)c2cccc(Br)c2)c(=O)n(-c2ccccc2)n1C qualifying_sign=< meas_value=20
compound="O=C(O)c1cccc(-c2ccc(/C=N/NC(=O)C3COc4ccccc4O3)o2)c1 (stereo unspecified)" qualifying_sign== meas_value=33.7
compound=O=C(O)c1cc(-c2ccc(/C=N/Nc3nc4nonc4nc3Nc3ccc(Br)cc3)o2)ccc1O qualifying_sign== meas_value=45.9
compound=COc1ccccc1OCC(=O)N/N=C/c1ccc(-c2cccc([N+](=O)[O-])c2)o1 qualifying_sign== meas_value=24.2
compound=O=C1NN(c2ccc(F)cc2)C(=O)/C1=C\c1ccc(-c2cccc(C(=O)O)c2)o1 qualifying_sign== meas_value=33.8
compound=C=CCNC(=S)N/N=C/c1ccc(-c2ccccc2[N+](=O)[O-])o1 qualifying_sign== meas_value=28.4
compound=O=C(O)c1cccc(-c2ccc(/C=N/Nc3nc(N4CCCC4)nc(N4CCCC4)n3)o2)c1 qualifying_sign=< meas_value=20

###

Target desc: UniProt:P0DTD1
Assay name: Inhibition of SARS CoV-2 main protease using DABCYL-KTSAVLQSGFRKM-E(EDANS)-NH2 as substrate preincubated for 30 mins followed by substrate addition and measured after 20 mins
pIC50: −log10 of the molar value.
Measured parameter: pIC50

mol=NC(=S)N/N=C/c1ccc(Cc2ccccc2)o1 meas_value=5.81
mol=NC(=S)N/N=C/c1ccc(-c2cc(C(=O)O)ccc2Cl)o1 meas_value=5.00
mol=Nc1nonc1-c1nc2ccccc2n1CC(=O)N/N=C/c1ccc(-c2cccc(C(=O)O)c2)o1 meas_value=4.67
mol=NC(=S)N/N=C/c1ccc(-c2ccc(C(=O)O)cc2)s1 meas_value=5.24

Where these numbers come from: ChEMBL document CHEMBL5137045
